Test system: PXR:RXRa (NR concentration 270 nM, RXRa partner concentration 90 nM)
protocol-details: PBM binding z-score (relative to random genomic background probes); higher = stronger binding; sequences stand for … in GC…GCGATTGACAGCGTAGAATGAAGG
The label depends only on PBM binding z-score: yes (1) if it is at least 0.7, no (0) if it is smaller.

Here are 3 sequences together with their reported answers.
INSERT INTO measurements (residues, category) VALUES
  ('TCAGACAGGTGATGGTAACTCAGGTACGCAGTCG', 'no (0)'),
  ('GCTGCTAGGTCAGGTTGGTCAGCTACCGGGTACG', 'no (0)'),
  ('GGAACAAGGGCAAAGTTGATAGCATCTGTCGACG', 'yes (1)');

Prompt: Hi team, for TATACAGGGTCAAAGGCCATAGTACGAATGTCGA , is the recorded PBM binding z-score at or above 0.7?
Completion: yes (1)

Prompt: Hi team, for GCTTACCGGTCAAAGGTTATAGCATGAATAGAAT , is the recorded PBM binding z-score at or above 0.7?
Completion: yes (1)

Prompt: Hi team, for TAGCCTAGGTCATTCAAGGGCCAGTATAGAAAGC , is the recorded PBM binding z-score at or above 0.7?
Completion: yes (1)

----------
Tested on: RARg homodimer (NR concentration 270 nM)
protocol-details: PBM binding z-score (relative to random genomic background probes); higher = stronger binding; sequences stand for … in GC…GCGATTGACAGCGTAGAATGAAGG
reported-property: PBM binding z-score
// keep it numeric: no unit symbol after the value

Prompt: Recorded PBM binding z-score of CCGGCTGGGGCAAGGTTACCATAACGCACAGCCA , please.
Completion: 1.27

----------
Each record here notes measured PBM binding z-score.
Tested on: PPARa:RXRa (NR concentration 270 nM, RXRa partner concentration 90 nM)
protocol-details: PBM binding z-score (relative to random genomic background probes); higher = stronger binding; sequences stand for … in GC…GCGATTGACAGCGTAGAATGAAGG
// keep it numeric: no unit symbol after the value

// solved cases for PBM binding z-score follow
INSERT INTO measurements (residues, reported_property, value) VALUES
  ('CTACCAAGGGGAACAAGGTCGTTGATTACTATTC', 'PBM binding z-score', 1.24),
  ('CGTCCAAGGTCAATGCTAAGTCAGTGAAAGCATT', 'PBM binding z-score', 4.73),
  ('CGTAAAAGTTCAAGGTAACGTAACAGAAAGCAGC', 'PBM binding z-score', 4.35),
  ('CAGCCTAGGTCAGAGCCAGTATAGGAGGAACGTT', 'PBM binding z-score', 1.69);

Prompt: Recorded PBM binding z-score of TAGACTAGGTCATTCAGGGGCCAGTATAGAAAGC , please.
Completion: 3.77

Prompt: Recorded PBM binding z-score of TCTGCTAGGTCAGTTGGTCAACTAACGAGCTGCC , please.
Completion: 1.63

Prompt: Recorded PBM binding z-score of TCATATAGGTCATACAGGTGAAAGTCGGCATCTA , please.
Completion: 5.68

Prompt: Recorded PBM binding z-score of CCGACTGGGGCATAAGGTTACCAAAAGCCAGCCC , please.
Completion: 2.36

Prompt: Recorded PBM binding z-score of CTCGAAATGTCGTGCTCAGGTGAGTATACCAAAC , please.
Completion: -0.0536

Prompt: Recorded PBM binding z-score of TCATATAGGTGATACAGGTGAAAGTCGGCATCTA , please.
Completion: 2.33

Prompt: Recorded PBM binding z-score of TCTATTAGTTGATGAGGGCAACCGAAACAGCGGA , please.
Completion: 1.07

Prompt: Recorded PBM binding z-score of AATACAGGGTCATCGTAGGCCAGACTACGCACAG , please.
Completion: 6.05

Prompt: Recorded PBM binding z-score of CCGACTGGGGCAAGGTTACCATCACGCACAGCCA , please.
Completion: 1.79

Prompt: Recorded PBM binding z-score of CCTTACGGGTCAATGACAGGTTATAGCATTTGGA , please.
Completion: 5.07

Prompt: Recorded PBM binding z-score of AGCTCTAGGTAAAGTTCAGTGAAAGATCGATAGA , please.
Completion: 1.83

Prompt: Recorded PBM binding z-score of TCATATAGGCAAATGCTAGGTGAAAGTCCGATCT , please.
Completion: 0.735
